Just for reference, PubChem BioAssay AID602428 is where these values come from.

# test_summary: blockers of Gli reporter signaling – single concentration, luciferase luminescence, Sufu-KO-LIGHT cells, confirmation (AID 602428)
# condition_description: at 5 µM
Screen size: about 2,500 compounds; about 980 (39%) were called active.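 The calls were made as follows: active = mean inhibition at 5 µM reaching about 45% (limit read from the data); inactive = the rest.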 Not all results are given here.
Choose the fitting class; nothing outside active, inactive is accepted.

Prompt line: I would be grateful if you could indicate the recorded call for COC(=O)c1ccccc1NC(=O)C1(S(=O)(=O)c2ccc(Cl)cc2)CC1 .
Response line: inactive

Prompt line: I would be grateful if you could indicate the recorded call for CCCC1=Nc2cc(C(=O)NCc3ccco3)ccc2Sc2ccccc21 .
Response line: inactive

Prompt line: I would be grateful if you could indicate the recorded call for C/C(=N\NC(=O)Cc1ccc(Cl)cc1)c1ccccn1 .
Response line: active

Prompt line: I would be grateful if you could indicate the recorded call for Cc1ccc(C)c(S(=O)(=O)N2CCN(c3ncnc4sccc34)CC2)c1 .
Response line: active

Prompt line: I would be grateful if you could indicate the recorded call for CCN1/C(=C/C(=S)Nc2ccccc2)Sc2ccccc21 .
Response line: inactive

Prompt line: I would be grateful if you could indicate the recorded call for C/C(=N\Nc1ccc(Cl)nn1)c1ccccc1O .
Response line: active

Prompt line: I would be grateful if you could indicate the recorded call for Cc1cc(C(=O)CSc2nc(N)cc(=O)[nH]2)c(C)n1-c1cccc(F)c1 .
Response line: active

Prompt line: I would be grateful if you could indicate the recorded call for CC(=O)N1CCCc2cc(S(=O)(=O)N3CCCC(C(=O)N4CCN(c5cccc(Cl)c5)CC4)C3)ccc21 (stereo not given) .
Response line: active

Prompt line: I would be grateful if you could indicate the recorded call for COc1cc(C(=O)OC(C)C(=O)NCC2CCCCC2)cc(NC(=O)c2ccco2)c1OC (stereo not given) .
Response line: inactive

Prompt line: I would be grateful if you could indicate the recorded call for CC1(C)Cc2ccccc2/C(=C/C(=O)c2ccccc2)N1 .
Response line: inactive
